Test system: CYP2C19
runDescription: CYP2C19 mRNA induction in HTC model
conditionInfo: Donor 2
pEC50: −log10 of the molar value.
pEC50 values, listed per item
observationType: pEC50

- compound: "CNC(=O)c1ccc(N2C(=S)N(c3cnc(C#N)c(C(F)(F)F)c3)C(=O)C23CCC3)cc1F [Apalutamide, apalutamide]"
  recordedNumber: 5.28
- compound: "CO[C@H]1/C=C/O[C@@]2(C)Oc3c(C)c(O)c4c(O)c(c(/C=N/N5CCN(C)CC5)c(O)c4c3C2=O)NC(=O)/C(C)=C\\C=C\\[C@H](C)[C@H](O)[C@@H](C)[C@@H](O)[C@@H](C)[C@H](OC(C)=O)[C@@H]1C"
  recordedNumber: 6.10
- compound: "NC(=O)N1c2ccccc2C=Cc2ccccc21 [Carbamazepine, carbamazepine]"
  recordedNumber: 3.73
